For each record, write down the corresponding fluorescence ratio to DMSO.
Biological target: ATP-binding cassette sub-family B member 6 (Homo sapiens) (UniProt Q9NP58)
Sequence (Q9NP58 whole entry, looked up): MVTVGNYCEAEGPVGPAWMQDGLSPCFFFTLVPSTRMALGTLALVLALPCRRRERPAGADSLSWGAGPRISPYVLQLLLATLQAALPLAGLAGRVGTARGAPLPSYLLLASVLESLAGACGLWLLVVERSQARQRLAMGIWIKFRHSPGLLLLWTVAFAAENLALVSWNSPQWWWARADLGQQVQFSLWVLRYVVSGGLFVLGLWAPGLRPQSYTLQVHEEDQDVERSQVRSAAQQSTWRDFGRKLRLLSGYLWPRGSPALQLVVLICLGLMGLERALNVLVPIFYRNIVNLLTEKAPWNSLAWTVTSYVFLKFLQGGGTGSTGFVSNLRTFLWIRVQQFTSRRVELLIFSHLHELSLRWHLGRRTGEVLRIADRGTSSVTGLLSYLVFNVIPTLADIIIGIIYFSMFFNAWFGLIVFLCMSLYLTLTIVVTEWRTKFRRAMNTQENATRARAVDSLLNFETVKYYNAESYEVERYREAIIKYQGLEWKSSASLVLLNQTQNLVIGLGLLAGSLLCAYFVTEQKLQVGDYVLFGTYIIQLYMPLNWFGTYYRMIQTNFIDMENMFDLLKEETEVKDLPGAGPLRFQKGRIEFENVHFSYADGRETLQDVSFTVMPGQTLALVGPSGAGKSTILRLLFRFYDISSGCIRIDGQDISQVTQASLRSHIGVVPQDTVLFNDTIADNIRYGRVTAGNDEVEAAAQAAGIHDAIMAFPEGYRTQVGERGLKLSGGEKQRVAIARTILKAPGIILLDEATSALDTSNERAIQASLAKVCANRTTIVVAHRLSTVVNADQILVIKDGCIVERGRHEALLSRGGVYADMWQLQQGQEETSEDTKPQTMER
Experiment: ABCB6 transporter inhibitors, primary screen, K562-ABCB6 cells, flow cytometry, MLPCN library (AID 602162);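 note: signal is porphyrin accumulated inside mitochondria; 100% equals median channel fluorescence of DMSO control wells; lower ratio means ABCB6 inhibition with less porphyrin fluorescence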
Details: K562-ABCB6 porphyrin accumulation, 1 h, at 10 µM, active compounds read low
Screen size: about 360,000 compounds; about 690 (0.19%) were called active. This excerpt belongs to a sample that is enriched for actives.
Response body: numeric value in %, unit text excluded.

Requested read-out: fluorescence ratio to DMSO. Entry: O=C(COc1nsnc1N1CCOCC1)Nc1ccccc1Cl
95

Now consider CC1(C(=O)NS(=O)(=O)c2ccc3ccccc3c2)CCN1C(=O)C1(c2ccc(Cl)cc2)CCC1 (configuration not stated) .
102

Now consider COc1cc2[nH]c(=S)n(Cc3ccc(F)cc3)c(=O)c2cc1OC .
72

Now consider COc1ccc(CNC(=O)CN2C(=O)NC3(CCCc4sccc43)C2=O)cc1 (configuration not stated) .
93

Now consider CSC1=NN(c2ccccc2)CN(c2ccccc2)N1C .
98

Now consider COc1ccc(-c2c(NC(=O)c3ccco3)oc3ccc(Cl)cc3c2=O)cc1 .
97

Now consider COc1ccc(CCNC2=C(Cl)C(=O)N(Cc3ccccc3)C2=O)cc1OC .
73

Now consider O=C(NC1CCCCC1)c1ccc2c(=O)n(CC3CCCO3)c(=O)[nH]c2c1 (configuration not stated) .
97

Now consider CC1(C)O[C@H]2CC(=O)OCC23[C@H]2CC[C@@]4(C)[C@H](c5ccoc5)OC(=O)[C@H]5O[C@]54[C@]2(C)C(=O)C[C@@H]13 (some centres not stated) .
100

Now consider O=C(Nn1cnc2ccccc2c1=O)c1ccc([N+](=O)[O-])cc1Cl .
98

Now consider CC(C)(C)Cc1c(C2CCCCC2)nc2ccc(Br)cn12 .
101

Now consider COc1ccc(NC(=O)/C(Cl)=C(/Cl)S(=O)Cc2ccc(C)cc2)cn1 (configuration not stated) .
19

Now consider COc1ccccc1S(=O)(=O)NCc1ccc(C(=O)N(C)Cc2ccc(F)cc2)cc1 .
92

Now consider Cc1ccc(SCC(=O)Nc2ncc(C)s2)cc1 .
71

Now consider O=C(Nc1ccccc1C(=O)N1CCCCCC1)c1ccccc1Cl .
99

Now consider O=C(CSc1nnc(C2CC2)n1Cc1ccccc1)Nc1cccnc1Cl .
85

Now consider Cc1ccc(SCC(=O)Nc2nncs2)cc1 .
99

Now consider COc1ccccc1N1CCN(C(=O)c2cc(=O)c3cc(C)cc(C)c3o2)CC1 .
101

Now consider CC(C)(C)n1cnnc1Sc1ccc([N+](=O)[O-])cn1 .
101

Now consider Cc1ccc2nc3c(cc(C(=O)NCCc4ccccc4)c(=N)n3CC3CCCO3)c(=O)n2c1 (configuration not stated) .
66

Now consider CC1(C)O[C@@H]2[C@H](O1)[C@@H](COS(=O)(=O)O)O[C@H]2n1cnc2c(=O)[nH]cnc21 .
98

Now consider O=C(Nn1cnc2ccccc2c1=O)c1ccc(F)cc1Cl .
26

Now consider CCOC(=O)[C@]12CCC=C1N(Cc1ccco1)C(=O)[C@H](CC(=O)NCc1cccc(C(F)(F)F)c1)C2 .
107

Now consider CCOC(=O)Cc1csc(NC(=O)CN(C)S(=O)(=O)c2ccc3c(c2)CCC(=O)N3)n1 .
98

Now consider C=Cn1cc[n+](CC(=O)c2ccc(OC)c(OC)c2)c1 .
97

Now consider CCOc1ccc2[nH]c3nc(SCC(=O)NC4CCCC4)nnc3c2c1 .
96

Now consider COC(=O)c1ccc2nc(C3CCCCC3)c(Cc3cccc(F)c3)n2c1 .
107

Now consider COc1ccccc1NC(=O)c1ccc(N2CC3CC(C2)c2cccc(=O)n2C3)c(NC(=O)c2cccnc2)c1 (configuration not stated) .
100

Now consider O=C(c1cccc(S(=O)(=O)N2CCCC2)c1)N(Cc1ccco1)C1CCS(=O)(=O)C1 (configuration not stated) .
97

Now consider Cc1cccc(C)c1NC(=O)Nc1ccccc1-n1ccnc1 .
96

Now consider CCOC(=O)c1cc(-c2sc(NC(=O)c3ccccc3)nc2C)n(-c2ccc(Br)cc2)n1 .
90

Now consider O=C(CN1C(=O)NC2(CCCC2)C1=O)Nc1ccc(F)c(F)c1F .
104

Now consider CCCOP(=O)(c1ccc(N(C)C)cc1)C(O)c1cc(OC)c(OC)c(OC)c1 (configuration not stated) .
94

Now consider O=C1NC2(CCCCCC2)C(=O)N1CCS(=O)(=O)Oc1ccccc1 .
96

Now consider CC1CCN(C(NC(=O)c2ccco2)C(=O)c2ccccc2)CC1 (configuration not stated) .
99

Now consider COc1ccc(-c2cnc(SCCNC(=O)c3ccc4c(c3)OCO4)[nH]2)cc1 .
98

Now consider N#CCCN1CCN(S(=O)(=O)c2ccc(S(=O)(=O)NC3CCCCC3)cc2)CC1 .
96

Now consider Cc1ccc(Cl)cc1N1CCN(C(=O)c2cccc3c(=O)c(C)c(-c4ccccc4)oc23)CC1 .
73

Now consider CCOc1ccc(C(=O)COC(=O)c2ccc(-n3cnnn3)cc2)cc1 .
101

Now consider C=CCc1cccc(/C=N/NC(=O)COc2ccc(-n3cnnn3)cc2)c1O .
93

Now consider COCCNc1cc(-c2ccccc2)nc2cc(-c3cccc(F)c3)nn12 .
97

Now consider Cc1ccc(CCNC(=O)c2ccc3nc4ccccc4c(=O)n3c2)cc1 .
100
